Test Target: Translocator protein (Homo sapiens, UniProt P30536)
Sequence (P30536 whole entry): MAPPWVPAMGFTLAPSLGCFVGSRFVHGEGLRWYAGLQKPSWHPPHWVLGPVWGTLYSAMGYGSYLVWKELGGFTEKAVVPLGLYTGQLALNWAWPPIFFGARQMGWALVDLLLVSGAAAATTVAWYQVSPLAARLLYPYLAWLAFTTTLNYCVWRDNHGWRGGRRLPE
pIC50: −log10 of the molar value.

{"Smiles Text": "O=C(OCc1cc2c(cc1Cl)OCO2)N1CCC(n2c(O)nc3ccccc32)CC1", "pIC50": 5.98}

----------
Test Target: Histamine H2 receptor (Homo sapiens)
Sequence (P25021 whole entry): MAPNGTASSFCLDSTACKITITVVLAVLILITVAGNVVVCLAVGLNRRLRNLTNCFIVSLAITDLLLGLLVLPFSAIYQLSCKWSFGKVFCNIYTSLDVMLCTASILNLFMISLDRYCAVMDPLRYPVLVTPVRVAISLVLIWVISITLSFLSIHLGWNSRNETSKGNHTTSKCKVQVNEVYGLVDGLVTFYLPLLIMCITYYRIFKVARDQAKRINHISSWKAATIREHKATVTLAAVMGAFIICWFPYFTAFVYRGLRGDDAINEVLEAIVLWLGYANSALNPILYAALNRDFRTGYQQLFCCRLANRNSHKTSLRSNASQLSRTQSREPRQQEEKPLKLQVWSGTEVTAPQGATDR
pIC50: −log10 of the molar value.
Label 1 (yes) when pIC50 is at or above 6; otherwise label 0 (no).

{"Smiles Text": "N#Cc1ccc(CCOC(=O)NC2CCN(CCCC(c3ccc(F)cc3)c3ccc(F)cc3)CC2)cc1", "Category": "1 (yes)"}
{"Smiles Text": "O=C(CCCc1ccccc1)N1CCN(CCCC(c2ccc(F)cc2)c2ccc(F)cc2)CC1", "Category": "0 (no)"}

----------
Assay read-out pIC50; system under study: 5-hydroxytryptamine receptor 1B (Homo sapiens, UniProt P28222).
Sequence (P28222 whole entry): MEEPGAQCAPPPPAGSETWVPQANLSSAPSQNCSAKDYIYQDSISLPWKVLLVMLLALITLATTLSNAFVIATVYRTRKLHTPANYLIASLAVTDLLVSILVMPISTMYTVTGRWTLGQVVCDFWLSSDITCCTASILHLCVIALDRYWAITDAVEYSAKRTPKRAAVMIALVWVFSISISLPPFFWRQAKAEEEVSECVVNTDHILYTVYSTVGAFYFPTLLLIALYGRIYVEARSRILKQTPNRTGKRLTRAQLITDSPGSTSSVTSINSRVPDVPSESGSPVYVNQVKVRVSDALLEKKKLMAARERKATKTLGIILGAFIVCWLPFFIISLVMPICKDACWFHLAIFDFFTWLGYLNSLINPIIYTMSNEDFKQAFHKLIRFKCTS
pIC50: −log10 of the molar value.
Measurement Type: pIC50

{"Smiles Text": "O=C(OCc1cc2c(cc1Cl)OCO2)N1CCC(n2c(O)nc3ccccc32)CC1", "Measurement Type": "pIC50", "Test Result": 6.15}
{"Smiles Text": "N#Cc1ccc(CCOC(=O)NC2CCN(CCCC(c3ccc(F)cc3)c3ccc(F)cc3)CC2)cc1", "Measurement Type": "pIC50", "Test Result": 5.45}

----------
Test Target: Voltage-gated L-type calcium channel (Homo sapiens, UniProt Q13936+Q13698+Q01668+O60840)
Format: protein assay
The label 1.0 is reserved for IC50 strictly under 2000 nM; 0.0 covers values equal to or above it.

{"Smiles Text": "O=C(CCc1ccc(F)cc1)N1CCN(CCCC(c2ccc(F)cc2)c2ccc(F)cc2)CC1", "Category": 0.0}
{"Smiles Text": "N#Cc1ccc(CCOC(=O)N2CCN(CCCC(c3ccc(F)cc3)c3ccc(F)cc3)CC2)cc1", "Category": 1.0}
{"Smiles Text": "COc1ccc(CN2CCN(C(=O)CCn3cc(C)c4ccccc43)CC2)cc1OCc1ccccc1", "Category": 0.0}
{"Smiles Text": "N#Cc1ccc(CCOC(=O)NC2CCN(CCCC(c3ccc(F)cc3)c3ccc(F)cc3)CC2)cc1", "Category": 1.0}
{"Smiles Text": "O=C(OCCc1ccc(F)cc1)N1CCN(CCCC(c2ccc(F)cc2)c2ccc(F)cc2)CC1", "Category": 0.0}
{"Smiles Text": "O=C(CCCc1ccccc1)N1CCN(CCCC(c2ccc(F)cc2)c2ccc(F)cc2)CC1", "Category": 0.0}
{"Smiles Text": "CCOc1ccc(CCNC(=O)N2CCN(CCCC(c3ccc(F)cc3)c3ccc(F)cc3)CC2)cc1", "Category": 1.0}

----------
pIC50: −log10 of the molar value.
Listed here: compounds with reported pIC50 for D(4) dopamine receptor (Homo sapiens).

{"Smiles Text": "O=C(OCCc1ccc(F)cc1)N1CCN(CCCC(c2ccc(F)cc2)c2ccc(F)cc2)CC1", "pIC50": 6.47}
{"Smiles Text": "O=c1[nH]c2ccccc2n(C2CCN(Cc3cc4c(cc3Cl)OCO4)CC2)c1=O", "pIC50": 5.18}
{"Smiles Text": "N#Cc1ccc(CCOC(=O)N2CCN(CCCc3ccccc3)CC2)cc1", "pIC50": 5.85}
{"Smiles Text": "O=C(CCCc1ccccc1)N1CCN(CCCC(c2ccc(F)cc2)c2ccc(F)cc2)CC1", "pIC50": 6.55}
{"Smiles Text": "O=C(CCc1ccc(F)cc1)N1CCN(CCCC(c2ccc(F)cc2)c2ccc(F)cc2)CC1", "pIC50": 6.15}
{"Smiles Text": "N#Cc1ccc(CCOC(=O)NC2CCN(CCCC(c3ccc(F)cc3)c3ccc(F)cc3)CC2)cc1", "pIC50": 6.27}
{"Smiles Text": "N#Cc1ccc(CCOC(=O)N2CCN(CCCC(c3ccc(F)cc3)c3ccc(F)cc3)CC2)cc1", "pIC50": 6.11}
